- tgt: Platelet-activating factor receptor (Oryctolagus cuniculus)
- protocolNotes: Inhibition of PAF receptor binding to rabbit platelet plasma membranes
observedProperty: IC50 (nM)
# number only, unit nM dropped from output

(Q) Given `COc1ccc([C@H]2CC[C@H](c3ccc(OC)c(OC)c3)O2)cc1OC` , respond with its IC50.
(A) 500
